# TEST_SYSTEM: gp120 CAAN (HIV (CAAN))
# TEST_DESCRIPTION: single-point ELISA at EC50 conc. of A-1
Reported ELISA A450 values for the following binders.
READOUT_NAME: ELISA A450 (A450)

• 1.14.17-1 (antibody, human IgG1, kappa, V domains shown) VH: QVQLLQSGAAVTKPGASVRVSCEASGYNIRDYFMHWVRQAPGQGLQWVGWINPKTGQPNNPRQFQGRVSLTRHASWDFDTFSAYMDLKALRSDDTAVYFCARQRSDYWDFDVWGSGTQVTVSS VL: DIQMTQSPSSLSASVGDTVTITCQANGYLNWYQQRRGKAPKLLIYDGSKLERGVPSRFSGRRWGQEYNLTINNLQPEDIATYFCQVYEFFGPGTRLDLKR = 0.43
• 1.12.17-1 (antibody, human IgG1, kappa, V domains shown) VH: QVQLLQSGAAVTKPGASVRVSCEASGYNIRDYFIHWVRQAPGQGLQWVGWINPKTGQPNNPRQFQGRVSLTRHASWDFDTFSFYMDLKALRSDDTAVYFCARQRSDYWDFDVWGSGTQVTVSS VL: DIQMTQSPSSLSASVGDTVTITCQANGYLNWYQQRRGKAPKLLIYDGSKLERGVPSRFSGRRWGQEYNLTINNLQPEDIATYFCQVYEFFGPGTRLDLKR = 0.84
• 1.13.17-1 (antibody, human IgG1, kappa, V domains shown) VH: QVQLLQSGAAVTKPGASVRVSCEASGYNIRDYFMHWVRQAPGQGLQWVGWINPKTGQPNNPRQFQGRVSLTRHASWDFDTFSFYMDLKALRSDDTAVYFCARQRSDYWDFDVWGSGTQVTVSS VL: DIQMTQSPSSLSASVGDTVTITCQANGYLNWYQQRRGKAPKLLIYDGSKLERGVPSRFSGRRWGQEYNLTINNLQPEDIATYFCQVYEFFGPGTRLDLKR = 0.78
• 1.36.35-1 (antibody, human IgG1, kappa, V domains shown) VH: QVQLVQSGAEVKKPGASVRVSCKASGYNIRDYFMHWWRQAPGQGLQWVGWINPKTGQPNNPRQFQGRVTMTRHASWDFDTFSAYMDLSRLRSDDTATYFCARQRTDYWDFDVWGQGTMVTVSS VL: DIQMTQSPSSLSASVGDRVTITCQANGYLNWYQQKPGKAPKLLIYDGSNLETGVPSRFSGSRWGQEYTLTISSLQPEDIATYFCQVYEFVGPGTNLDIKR = 0.36
• 1.34.35-1 (antibody, human IgG1, kappa, V domains shown) VH: QVQLVQSGAEVKKPGASVRVSCKASGYNIRDYFIHWWRQAPGQGLQWVGWINPKTGQPNNPRQFQGRVTLTRHASWDFDTFSFYMDLKALRSDDTAVYFCARQRTDYWDFDVWGSGTQVTVSS VL: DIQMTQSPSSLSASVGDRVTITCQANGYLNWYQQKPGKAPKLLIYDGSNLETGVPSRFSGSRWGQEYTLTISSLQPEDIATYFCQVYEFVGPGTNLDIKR = 0.77
